Origin of measurements: patent US9718790B2

- Test target: human P2X3 receptor (Homo sapiens (Human), UniProt P56373)
- Sequence (P56373 whole entry): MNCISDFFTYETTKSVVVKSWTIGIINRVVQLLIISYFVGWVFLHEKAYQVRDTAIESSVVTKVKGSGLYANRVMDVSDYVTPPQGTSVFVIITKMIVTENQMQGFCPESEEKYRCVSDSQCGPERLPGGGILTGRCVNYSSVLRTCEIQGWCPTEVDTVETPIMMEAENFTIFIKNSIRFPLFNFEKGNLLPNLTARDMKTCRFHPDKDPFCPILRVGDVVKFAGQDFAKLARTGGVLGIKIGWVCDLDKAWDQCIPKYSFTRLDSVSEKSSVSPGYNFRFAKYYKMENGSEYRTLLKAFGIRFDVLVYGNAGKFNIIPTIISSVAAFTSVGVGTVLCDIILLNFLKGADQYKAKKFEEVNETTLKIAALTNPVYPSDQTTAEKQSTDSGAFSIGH
- Procedure summary: Evaluation of human P2X3 receptor inhibitory activity (Fluo-3 calcium fluorescence, FDSS 3000, ATP stimulation);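 further: stimulus was 50 nM ATP with fluorescence followed for 3 min, and the response per well was peak post-ATP fluorescence divided by the reading at measurement start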
- Format: cell-based
- Study conditions: C6BU-1 cells stably expressing human P2X3 receptor
pIC50: −log10 of the molar value.
Output fulfilled for pIC50 not less than 8; output not fulfilled otherwise.

INSERT INTO results (structure, group) VALUES
  ('CCCOc1ccc(/N=c2\[nH]c(=O)n(C[C@H](C)C(=O)OC)c(=O)n2Cc2ccc(Cl)cc2)cc1C', 'not fulfilled'),
  ('CCn1c(=O)[nH]/c(=N\c2ccc(OCc3noc(C)n3)cc2)n(Cc2ccc(Cl)cc2)c1=O', 'not fulfilled'),
  ('CCn1c(=O)[nH]/c(=N\c2ccc(Oc3ccnc(NC(C)=O)c3)cc2)n(Cc2ccc(Cl)cc2)c1=O', 'fulfilled'),
  ('Cc1ccc(Cn2c(=O)n(C)c(=O)[nH]/c2=N\c2ccc(Oc3cncc(C(=O)O)c3)cc2)cc1', 'not fulfilled'),
  ('CCn1c(=O)[nH]/c(=N\c2ccc(Oc3ccc(C(=O)OC)nc3)cc2)n(Cc2ccc(Cl)cc2)c1=O', 'fulfilled');
